Target: IL-18BP (human)
Test: BLI
Observable: binding result

Binder: IL18R_tanVHHβ15α2 (antibody, V domains shown) V domain 1: DVQLQESGGGLVQPGGSLRLSCAASGRFFTINAMGWYRQTPGKQRELVAAITSDGSTTYQDSVKGRFTISRDNANRTANLYMNSLKSEDTAVYYCNADGRFNDNGYVKNFNIWGQGTQVTVSS V domain 2: DVQLQESGGGLVQAGGSLRLSCAASGFTLLDSYDIGWFRQAPGKKREEVSCISSSGGKSTYYADSVKGRFTISRDNANNTVYLQMNSLKPEDTAVYYCAADGAEGFWSCQSGGYDYWGQGTQVTVSS
Result: no binding
--
Binder: IL18R_VHHα8β17 (antibody, V domains shown) V domain 1: DVQLQESGGGLVQAGGSLRLSCAASGRTFSNDAMGWFRQAPGKEREFVAAVSWSLGMTYNADSVKGRFTISRDNAKNTVYLQMNSLKPDDTAVYYCAAGPDLSDELYGYDYWGQGTQVTVSS V domain 2: DVPLQESGGGLVQAGGSLRLSCVASGFALDEIAVGWFRQAPGKEREGLSCISSSDGSTLYADSVKGRFTISSDNAKNTVYLQMNSLKPEDTAVYLCAAVRGSCFGRTTHWGQGTQVTVSS
Result: no binding
--
Binder: IL18R_VHHα2β17 (antibody, V domains shown) V domain 1: DVQLQESGGGLVQAGGSLRLSCAASGFTLLDSYDIGWFRQAPGKKREEVSCISSSGGKSTYYADSVKGRFTISRDNANNTVYLQMNSLKPEDTAVYYCAADGAEGFWSCQSGGYDYWGQGTQVTVSS V domain 2: DVPLQESGGGLVQAGGSLRLSCVASGFALDEIAVGWFRQAPGKEREGLSCISSSDGSTLYADSVKGRFTISSDNAKNTVYLQMNSLKPEDTAVYLCAAVRGSCFGRTTHWGQGTQVTVSS
Result: no binding
